Source of measurements: the supplement of paper PMC10567573

B1: CHMP4C (parent)
chain: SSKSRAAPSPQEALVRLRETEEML

- Variants of: B1
- Test summary: protein stability index of a GFP-peptide fusion (GPS, HEK-293T) (PSI 1-6); higher = more stable;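 further: lentivirally expressed fusions sorted by FACS into six bins by GFP to DsRed ratio, PSI derived from sequencing read proportions per bin multiplied by bin number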
- Experimental context: c terminus: a fixed tail appended
Reported property: protein stability index
Please state the value as a number alone, without comment.

// solved cases for protein stability index follow
{"columns": ["Variant", "protein stability index"],
 "data": [
  ["E22F", 2.05],
  ["L24R", 4.22],
  ["S9I", 3.22],
  ["L24T", 3.92],
  ["L17T", 5.6],
  ["R16H", 1.63],
  ["P10N", 4.79],
  ["L24S", 4.53],
  ["L17H", 4.79],
  ["R18F", 1.83]
]}

Read the entry "M23D" and write its reported protein stability index. 4.26

Read off the recorded protein stability index for "E19H" 2.9
